Test system: eOD-GT8 (monomeric ligand) (Human immunodeficiency virus 1, …)
Answer each item with its documented pKd.
pKd (log units): -log10 of the concentration in mol/L.

Q. Using known records, supply pKd for g28-D78-2_CLK09 (antibody, V domains shown) VH: QLQLVQSGAEVKKPGASVKVSCKASGYTFTGYFIHWVRQAPGQGLEWMGWLNPIYGGVNYARNFQGRVTMTRDTSISTAYLELKRLKSDDTAVYYCARVAERMIFDVWGQGTMVTVSS VL: DIQMTQSPSSLSASVGDRVTIACQASQDINNYVNWYQQKPGKAPKLLIYDASNLETGVPSRFSGSRSGTDFTFTISSLQPEDIATYYCQQYEFFGGGTKVRIK
A. 7.82

Q. Using known records, supply pKd for g28-D78-19_CLK09 (antibody, V domains shown) VH: QVQLVQSGAEVKKPGASVKVSCKTSGYTFTAYYVHWVRQAPGQGLEWMGWINPTNGATNYAQIFQGRVTMTRDTSISTAYMELNRLRSDDTAVYYCARVGGLWAFDIWGQGTIVTVSS VL: DIQMTQSPSSLSASVGDRVTITCQASQHITRNLNWYQQKPGKAPKLLISDAYNLKIGVPSRFSGSGSGTDFTFTISSLQPEDVATYYCQQYEFFGGGTEVEIK
A. 8.06
